# method: recombinant barcode read abundance after kanamycin selection (control-corrected) (log10(CPM+1)); higher = more efficient recombination; sequences stand for … in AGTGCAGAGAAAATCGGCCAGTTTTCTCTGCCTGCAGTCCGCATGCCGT…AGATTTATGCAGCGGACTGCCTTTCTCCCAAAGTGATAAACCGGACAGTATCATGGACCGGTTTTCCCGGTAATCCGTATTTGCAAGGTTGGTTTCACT; site = the 11-nt target;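 further: IS621 recombinase and bridge RNA in Escherichia coli cells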
endpoint.label: recombinant barcode read abundance (log10)

[
  {
    "residue.sequence": "GTAGACACTTGGGTTCTAACCTGTTGCCG (site GTAAACACTCT)",
    "measured.value": 0.142
  },
  {
    "residue.sequence": "AGGGAAGCTTGGGTTCTAACCTGTTGCCT (site AGGGCAGCTAG)",
    "measured.value": 0.385
  },
  {
    "residue.sequence": "CGGGCCTCTTGGGTTCTAACCTGTTGCTA (site CGGGCCTCTGA)",
    "measured.value": 1.27
  },
  {
    "residue.sequence": "GCTCCTCCTTGGGTTCTAACCTGTTGCAT (site GCTCCTCCTAT)",
    "measured.value": 1.15
  },
  {
    "residue.sequence": "TTCTATCCTTGGGTTCTAACCTGTTGCCT (site TTCTATCCTAG)",
    "measured.value": 0.486
  },
  {
    "residue.sequence": "GCGCTAGCTTGGGTTCTAACCTGTTGCCT (site CCGCTAGCTAG)",
    "measured.value": 0.0832
  },
  {
    "residue.sequence": "GCGCGCCCTTGGGTTCTAACCTGTTGCGG (site GCGCGCCCTCA)",
    "measured.value": 0.101
  },
  {
    "residue.sequence": "CTAACCTCTTGGGTTCTAACCTGTTGCTC (site CTAACCTCTTA)",
    "measured.value": 0.0437
  },
  {
    "residue.sequence": "TTACCGACTTGGGTTCTAACCTGTTGCCT (site TTACCTACTAG)",
    "measured.value": 0.0567
  },
  {
    "residue.sequence": "TCGCACCCTTGGGTTCTAACCTGTTGCGA (site TCGCACCCTTC)",
    "measured.value": 0.571
  }
]

The values you see were collected from the supplement of paper PMC11208160.
